- System: sorbitol accumulation in tissues
- Experimental Details: Inhibitory action on sorbitol accumulation in tissues of rats with experimental (streptozotocin) diabetes
- Format: in vivo, Sprague-Dawley rats
- Protocol Conditions: 10 mg/kg orally at 4, 8 and 24 hours after streptozotocin; measured 3 hours after final administration; control taken as 100%
Marks after values point to notes of the source that are not given here.
Measured Property: Sorbitol accumulation (%) erythrocytes

Exercise: Consider the compound O=C(O)CC1Oc2ccc(F)cc2N(Cc2nc3c(Cl)c(Cl)ccc3s2)C1=O (stereo not shown) . State its measured Sorbitol accumulation (%) erythrocytes.
Key: 16.3** %

Exercise: Consider the compound O=C(O)CC1Oc2ccc(Cl)cc2N(Cc2nc3c(F)c(F)cc(F)c3s2)C1=O (stereo not shown) . State its measured Sorbitol accumulation (%) erythrocytes.
Key: 24.6** %

Exercise: Consider the compound Cc1ccc2c(c1)OC(CC(=O)O)C(=O)N2Cc1nc2cc(F)cc(F)c2s1 (stereo not shown) . State its measured Sorbitol accumulation (%) erythrocytes.
Key: 34.9** %

Exercise: Consider the compound Cc1ccc2c(c1)N(Cc1nc3c(F)c(F)ccc3s1)C(=O)C(CC(=O)O)O2 (stereo not shown) . State its measured Sorbitol accumulation (%) erythrocytes.
Key: 17.3** %
